Molecular target: Genome polyprotein (dengue virus type 2)
Sequence (P29990 1346-1475 limits assumed): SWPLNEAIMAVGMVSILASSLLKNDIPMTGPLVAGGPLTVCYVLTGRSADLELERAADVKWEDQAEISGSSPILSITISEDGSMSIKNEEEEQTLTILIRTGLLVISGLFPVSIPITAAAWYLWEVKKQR
Sequence (P29990 1476-2093 limits assumed): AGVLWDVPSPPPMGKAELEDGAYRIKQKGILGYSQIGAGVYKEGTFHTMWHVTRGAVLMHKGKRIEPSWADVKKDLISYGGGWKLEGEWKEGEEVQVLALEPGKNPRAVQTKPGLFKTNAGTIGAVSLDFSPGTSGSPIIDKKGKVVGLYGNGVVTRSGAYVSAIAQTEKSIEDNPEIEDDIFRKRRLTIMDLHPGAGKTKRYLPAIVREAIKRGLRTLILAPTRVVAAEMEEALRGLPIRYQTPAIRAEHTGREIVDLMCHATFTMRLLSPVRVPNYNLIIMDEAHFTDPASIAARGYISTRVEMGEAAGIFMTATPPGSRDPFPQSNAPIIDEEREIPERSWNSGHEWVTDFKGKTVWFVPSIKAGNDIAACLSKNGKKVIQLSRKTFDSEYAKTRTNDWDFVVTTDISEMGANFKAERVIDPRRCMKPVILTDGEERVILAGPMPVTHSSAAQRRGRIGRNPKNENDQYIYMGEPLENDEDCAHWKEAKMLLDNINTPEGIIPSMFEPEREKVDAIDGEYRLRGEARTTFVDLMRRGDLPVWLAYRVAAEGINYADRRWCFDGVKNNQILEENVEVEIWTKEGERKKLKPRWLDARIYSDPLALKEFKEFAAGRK
Assay type: functional, Thailand/16681/1984
RESULT_TYPE: IC50

# SMILES, TEST_SYSTEM, IC50
measured = [
    ("CO[C@H]1C[C@H](n2ncc3c(C(=O)Nc4ccc5c(c4)CNC5)cc(Cl)cc32)C1", "Genome polyprotein (dengue virus type 2)", "> 99.5 µM"),
    ("NC1(c2cccc(NS(=O)(=O)c3ccc(Oc4ccccc4Cl)cc3)c2)CCC1", "Genome polyprotein (dengue virus type 2)", "> 99.5 µM"),
    ("NCc1cc(/C=C/C(=O)O)cc(NC(=O)c2cc(Cl)cc(NC(=O)OCc3ccccc3)c2)c1", "Genome polyprotein (dengue virus type 2)", "94.6 µM"),
    ("NCc1cccc(NC(=O)[C@H](NC(=O)OCc2ccccc2)C2CCN(C(=O)C3CCCCC3)CC2)c1", "Genome polyprotein (dengue virus type 2)", "> 99.5 µM"),
    ("O=C(Nc1ccc2c(c1)CNC2)c1n[nH]c2ccc(F)cc12", "Genome polyprotein (dengue virus type 2)", "> 99.5 µM"),
]

For each of the molecules below, state IC50.
1. C[C@H]1C[C@H](c2cccc(CN)c2)[C@@H](c2cc(Cl)cc(NC(=O)OCc3ccccc3)c2)C1
2. NCc1cccc(NC(=O)[C@H]2c3ccc(Br)cc3CCN2C(=O)OCc2ccccc2)c1
3. CN(C)c1cc(-c2ccc(S(=O)(=O)Nc3ccc(Cl)cc3C(=O)O)cc2)ccn1
4. Cc1cc(C(=O)Nc2cccc(CN)c2)nc(C)n1
5. CCS(=O)(=O)c1ccc(Cl)cc1C(=O)Nc1ccc2c(c1)CNC2
6. Cc1c(C(=O)Nc2ccc(CN)cc2)cc(C2CC2)n1C
7. O=C1Cc2c(cccc2C(=O)NC[C@H]2C[C@@H](n3cccn3)C2)N1

*A*
1. 55.7 µM
2. > 99.5 µM
3. 87.6 µM
4. > 99.5 µM
5. > 99.5 µM
6. > 99.5 µM
7. > 99.5 µM

For each of the molecules below, state IC50.
1. Cc1c(C(=O)Nc2cc(C(=O)N3CCOCC3)ccn2)cc(C2CC2)n1C
2. Cc1c(C(=O)Nc2cc(-c3cccnc3)ccn2)cc(C(C)C)n1C
3. CC[C@@H](Cc1nnn[nH]1)c1ccc(NC(=O)c2cc(Cl)cc(NC(=O)OCc3ccccc3)c2)cc1
4. O=C(Nc1cc(Cl)cc(C(=O)N[C@@]23CCCCC[C@@H]2NCC3)c1)OCc1ccccc1

*A*
> 99.5 µM
> 99.5 µM
8.85 µM
> 99.5 µM

For each of the molecules below, state IC50.
1. O=C(O)c1cc(Cl)c(F)cc1NS(=O)(=O)c1ccc(Oc2ccccc2Cl)cc1
2. O=C(c1cc(Cl)ccc1NS(=O)(=O)c1ccc(Oc2ccccc2Cl)cc1)N1CCCC1
3. NCc1cccc(NC(=O)[C@@H](NC(=O)OCc2ccccc2)c2ccc(F)cc2F)c1
4. CCOc1cc(N2CCN(C)CC2)ccc1NS(=O)(=O)c1ccc(Cl)cc1C(=O)O
5. Cc1c(C(=O)Nc2cc(C#N)cn(C)c2=O)cc(C2CC2)n1C
6. O=C(Nc1ccc(-n2nn[nH]c2=O)cc1)c1cc(Cl)cc(C2CC2)c1

*A*
["7.82 µM", "66.2 µM", "> 99.5 µM", "> 99.5 µM", "> 99.5 µM", "> 99.5 µM"]
